Test system: N9
Test: Cytotoxicity against mouse N9 cells assessed as LDH release
Format: cell-based
measuredParameter: Activity

Param item = COC1=CC(=O)c2ccc3cc(OC)cc(O)c3c2C1=O ; retrieve measured Activity. < 10%
